Reported pIC50 values for a set of molecules
Target chain: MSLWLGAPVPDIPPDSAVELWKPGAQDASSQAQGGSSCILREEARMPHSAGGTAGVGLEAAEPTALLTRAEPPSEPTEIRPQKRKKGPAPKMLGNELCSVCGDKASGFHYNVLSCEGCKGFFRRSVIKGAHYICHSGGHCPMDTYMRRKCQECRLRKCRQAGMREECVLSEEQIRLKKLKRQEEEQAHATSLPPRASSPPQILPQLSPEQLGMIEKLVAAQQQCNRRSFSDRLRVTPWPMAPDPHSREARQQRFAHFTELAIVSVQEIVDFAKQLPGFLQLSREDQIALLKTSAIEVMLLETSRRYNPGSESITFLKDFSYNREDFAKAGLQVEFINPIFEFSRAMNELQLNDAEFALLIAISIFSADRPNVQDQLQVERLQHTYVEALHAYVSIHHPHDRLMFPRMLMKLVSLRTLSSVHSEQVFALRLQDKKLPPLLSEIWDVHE
pIC50: −log10 of the molar value.

The examples below pair each entry with its known result.
molecule: CCc1nc2c(C(F)(F)F)cccn2c1-c1cccc(Oc2cccc(S(C)(=O)=O)c2)n1 [Example 88]
pIC50: < 6.00
//
molecule: CCc1nc2c(C#N)cccn2c1-c1cccc(OCc2ccc(S(C)(=O)=O)cc2)c1 [Example 58]
pIC50: < 6.00

Proceed to the following item.
Tell me pIC50 reported for CC(C)c1nc2c(C#N)cccn2c1-c1cccc(OCc2ccc(S(C)(=O)=O)cc2)c1 [Example 59]
< 6.00

---

- System: ABCA1 gene
- experimentSummary: Quantitative analysis of ABCA1 gene regulation in THP-1 cells (real-time PCR)
- Format: cell-based, human
- reportedConditions: Gene regulation by LXR (Human); differentiated THP-1 cells, 18 hrs, ABCA1 mRNA; read-out: EC50 ABCA1
measuredParameter: EC50 (nM)

The examples below pair each entry with its known result.
chemicalString: CCc1nc2c(Cl)cccn2c1-c1cccc(Oc2cccc(S(=O)(=O)CC)c2)c1
EC50 (nM): 640

chemicalString: CCS(=O)(=O)c1cccc(Oc2ccc(-c3c(C(C)C)nc4c(C(F)(F)F)cccn34)cc2)c1
EC50 (nM): 590

chemicalString: CCc1nc2c(Cl)cccn2c1-c1cccc(Oc2cccc(S(=O)(=O)NC)c2)c1
EC50 (nM): 925

chemicalString: CS(=O)(=O)c1cccc(Oc2cccc(-c3c(Cn4ccnc4)nc4c(C(F)(F)F)cccn34)c2)c1
EC50 (nM): 135

(1) COc1ccccc1-c1nc2c(C(F)(F)F)cccn2c1-c1ccc(Oc2cccc(S(C)(=O)=O)c2)cc1
(2) CCc1nc2c(C(F)(F)F)cccn2c1-c1cccc(Oc2cccc(S(=O)(=O)CC)c2)c1
Which is greater in EC50, the first item 1 or the second item 2 ? Use the label to indicate which entry you chose.
2
(2: 110 nM, 1: 25 nM)

(A) CCS(=O)(=O)c1cccc(Oc2ccc(Cl)c(-c3c(C(C)C)nc4c(C#N)cccn34)c2)c1
(B) CC(C)c1nc2c(C(F)(F)F)cccn2c1-c1ccc(Oc2cccc(S(C)(=O)=O)c2)cc1
From the items above, decide which of A and B has the lower EC50 reading. Use the label to indicate which entry you chose.
A
(A: 260 nM, B: 620 nM)

(I) CCc1nc2c(C(F)(F)F)cccn2c1-c1cccc(Oc2cccc(S(=O)(=O)C(C)C)c2)c1
(II) CC(C)c1nc2c(C#N)cccn2c1-c1cccc(Oc2cccc(S(=O)(=O)C(C)C)c2)c1
Which is greater in EC50, the first item I or the second item II ? Use the label to indicate which entry you chose.
II
(II: 560 nM, I: 70 nM)
